- TESTED_ON: Corticotropin-releasing factor receptor 2/Corticotropin-releasing factor-binding protein (Homo sapiens, UniProt P24387+Q13324)
- Sequence (Q13324 whole entry): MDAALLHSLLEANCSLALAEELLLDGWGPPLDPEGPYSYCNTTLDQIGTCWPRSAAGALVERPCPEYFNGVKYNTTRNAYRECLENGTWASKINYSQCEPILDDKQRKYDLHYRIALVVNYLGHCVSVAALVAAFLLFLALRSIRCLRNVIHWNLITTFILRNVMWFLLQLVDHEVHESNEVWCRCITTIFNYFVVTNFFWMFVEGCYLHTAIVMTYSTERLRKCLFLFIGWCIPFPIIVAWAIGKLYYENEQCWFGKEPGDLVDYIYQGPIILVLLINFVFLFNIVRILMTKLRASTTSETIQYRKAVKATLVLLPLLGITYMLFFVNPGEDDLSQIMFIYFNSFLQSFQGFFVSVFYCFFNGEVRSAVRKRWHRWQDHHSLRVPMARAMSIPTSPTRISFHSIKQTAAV
- Sequence (P24387 whole entry): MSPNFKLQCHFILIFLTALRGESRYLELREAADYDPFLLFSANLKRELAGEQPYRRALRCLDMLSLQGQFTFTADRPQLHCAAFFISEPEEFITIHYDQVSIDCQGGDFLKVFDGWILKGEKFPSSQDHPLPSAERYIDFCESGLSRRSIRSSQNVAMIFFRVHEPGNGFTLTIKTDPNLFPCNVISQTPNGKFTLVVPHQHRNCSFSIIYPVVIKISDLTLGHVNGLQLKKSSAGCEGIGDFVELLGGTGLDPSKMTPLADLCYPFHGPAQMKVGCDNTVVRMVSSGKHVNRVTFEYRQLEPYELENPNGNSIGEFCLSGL
- ASSAY_NAME: activators of CRF receptor 2 with binding protein – uHTS hits, confirmation (AID 602473)
- Type: functional
- STATED_CONDITIONS: read-out: EC50_Mean
Activity calls are given as the source filed them. Cut-off read from the data, not from the text of the source: actives have a measured EC50 and inactives only a lower limit.
Possible outcomes: yes (active), no (inactive)

>  <COMPOUND>
Cc1ccc(-n2[nH]c(C)c(/C=N/N3C(=O)c4cccc5cccc(c45)C3=O)c2=O)cc1

>  <CLASS>
yes

$$$$
>  <COMPOUND>
Cc1ccc(S(=O)(=O)NC(C(=O)O)c2ccccc2)cc1 (stereo not given)

>  <CLASS>
no

$$$$
>  <COMPOUND>
COc1cc2ccccc2cc1C(=O)N/N=C/c1ccc2c(c1)OCO2

>  <CLASS>
no

$$$$
>  <COMPOUND>
COc1ccc2cc(C(=O)N3CCN(Cc4ccc5c(c4)OCO5)CC3)[nH]c2c1

>  <CLASS>
no

$$$$
>  <COMPOUND>
c1ccc2c(CN3CCCCC3)csc2c1

>  <CLASS>
yes

$$$$
>  <COMPOUND>
COc1ccc(/C=N/Nc2ccc([N+](=O)[O-])cc2S(=O)(=O)N2CCN(C)CC2)cc1

>  <CLASS>
yes

$$$$
>  <COMPOUND>
N#C/C(=C1\CCCN1)c1nc(O)c2ccccc2n1

>  <CLASS>
no

$$$$
>  <COMPOUND>
CCC(=O)Nc1ccc(NC(=O)c2oc3ccccc3c2C)cc1

>  <CLASS>
no

$$$$
>  <COMPOUND>
Cc1c(-n2cc(C(=O)c3ccccc3O)cc(C#N)c2=O)c(=O)n(-c2ccccc2)n1C

>  <CLASS>
yes

$$$$
>  <COMPOUND>
C#CCN(N(C)c1ncc(C(F)(F)F)cc1Cl)S(=O)(=O)c1ccc2ccccc2c1

>  <CLASS>
no

$$$$
